Test system: Isoform Alpha-4-2 of Neuronal acetylcholine receptor subunit alpha-4 (Alpha-4-2) (Rattus norvegicus)
Sequence (P09483 as listed by the source): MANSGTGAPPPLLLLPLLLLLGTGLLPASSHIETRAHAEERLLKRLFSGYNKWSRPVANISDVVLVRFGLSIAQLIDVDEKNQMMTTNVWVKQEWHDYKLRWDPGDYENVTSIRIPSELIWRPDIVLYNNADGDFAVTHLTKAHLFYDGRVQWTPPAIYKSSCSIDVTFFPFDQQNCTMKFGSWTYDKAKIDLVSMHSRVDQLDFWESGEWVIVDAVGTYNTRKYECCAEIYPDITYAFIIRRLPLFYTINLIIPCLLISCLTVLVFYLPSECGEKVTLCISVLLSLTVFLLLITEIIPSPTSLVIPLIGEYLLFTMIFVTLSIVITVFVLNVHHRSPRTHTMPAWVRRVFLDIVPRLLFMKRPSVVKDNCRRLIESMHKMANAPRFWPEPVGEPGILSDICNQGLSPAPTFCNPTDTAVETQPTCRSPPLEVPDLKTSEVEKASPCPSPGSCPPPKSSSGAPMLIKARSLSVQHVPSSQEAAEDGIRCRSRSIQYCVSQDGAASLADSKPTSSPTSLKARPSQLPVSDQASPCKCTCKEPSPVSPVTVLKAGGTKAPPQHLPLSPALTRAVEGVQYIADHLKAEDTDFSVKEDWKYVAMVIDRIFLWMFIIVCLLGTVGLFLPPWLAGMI
Assay explanation: Inhibition Assay
pKi: −log10 of the molar value.
In this section we review reported pKi values for a set of compounds.
Experimental endpoint: pKi

- Compound: "Fc1ncc(C2CC3CCC2N3)cc1-c1cccc(Cl)c1 (racemic)"
  Data value: 10.14
- Compound: "Fc1ncc(C2CC3CCC2N3)cc1-c1ccccc1 (stereo not drawn) [US9150581, RTI-7527-(-)-47]"
  Data value: 9.59
